In this section we review reported protein stability index values for a set of variants.
B1: PTPRD (parent)
chain: ELDELLKEISRKRRSIRYGREVEL

variants of: B1; test: protein stability index of a GFP-peptide fusion (GPS, HEK-293T) (PSI 1-6); higher = more stable; conditions: c terminus: a fixed tail appended;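 further: lentivirally expressed fusions sorted by FACS into six bins by GFP to DsRed ratio, PSI derived from sequencing read proportions per bin multiplied by bin number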
Please reply with the number alone, leaving off any unit.

Solved cases (4 shown):
- E4G: 3.34
- S15E: 2.65
- R13M: 2.21
- R17L: 2.55

// protein stability index lookup, variant = R20K , result: 2.17

Form field protein stability index, entry K7Y : 2.77

Summary for this variant, G19I : protein stability index is 2.05

This collection of values is drawn from the supplement of paper PMC10567573.
